Data provenance: paper PMC3532212

Assay: Plasma concentrations in repeat-dosing study, satellite rats
Type: in vivo, rat
Conditions: male, Sprague Dawley, rat, plasma, po, 30 mg/kg/day, BAF312 30.0 mg/kg/d p.o., Terminal (last day), 8 hr post-dose, mean±SEM
readout_kind: concentration at 8 h (µM)

molecule | readout_kind | quantity_unit | reported_measurement
CCc1cc(/C(C)=N/OCc2ccc(C3CCCCC3)c(C(F)(F)F)c2)ccc1CN1CC(C(=O)O)C1 [BAF312] | concentration at 8 h | µM | 5.28

###

Test: Plasma concentrations in repeat-dosing study, satellite rats
Type: in vivo, rat
Details: male, Sprague Dawley, rat, plasma, po, 0.5 mg/kg/day, FTY720 0.5 mg/kg/d p.o., Terminal (last day), 24 hr post-dose, mean±SEM
Experimental: Mean arterial pressure was assessed in conscious, freely moving male Sprague Dawley rats (n = 6–8/group; Charles River) instrumented with telemetry transmitters (DSI-Ponemah) and housed in metabolism cages as previously described, [26]. […] The statistical analysis in the chronic studies were based on one-way ANOVA with repeated measures to compare the treatment arms; statistical significance (p<0.05) was detected by Dunnett’s post-hoc test to compare treatment with vehicle controls.

compound_structure_string | concentration at 24 h / nM
CCCCCCCCc1ccc(CCC(N)(CO)CO)cc1 | 40

###

Experiment: Plasma concentrations during escalating i.v. infusion in anesthetized rats
Type: in vivo
Conditions: male, Sprague Dawley, plasma, iv; anesthetized rat, BAF312 i.v., end of 0.5 mg/kg/20 min infusion
Protocol: The cardiovascular effects of FTY720 and BAF312 were tested in anesthetized rats (180–200 g). In brief, male Sprague Dawley rats (Charles River) were anesthetized with Inactin (110 mg/kg i.p.) and a tracheotomy performed. […]

compound_structure_string | quantity_unit | concentration at 20 min
CCc1cc(/C(C)=N/OCc2ccc(C3CCCCC3)c(C(F)(F)F)c2)ccc1CN1CC(C(=O)O)C1 | nM | 1430

###

Assay: Plasma concentrations after a single oral dose in rats
Assay type: in vivo
Details: male, Sprague Dawley, plasma; rat, FTY720 0.3 mg/kg single oral dose, 24 hr post-dose, mean±SEM
readout_kind: concentration at 24 h

compound_structure_string | readout_kind | reported_measurement
CCCCCCCCc1ccc(CCC(N)(CO)CO)cc1 | concentration at 24 h | 15 nM

###

Test: Plasma concentrations in repeat-dosing study, satellite rats
Type: in vivo, rat
Conditions: male, Sprague Dawley, rat, plasma, po, 0.5 mg/kg/day, rat, FTY720 0.5 mg/kg/d p.o., Day 1, 24 hr post-dose, mean±SEM
Method: Mean arterial pressure was assessed in conscious, freely moving male Sprague Dawley rats (n = 6–8/group; Charles River) instrumented with telemetry transmitters (DSI-Ponemah) and housed in metabolism cages as previously described, [26]. […] The statistical analysis in the chronic studies were based on one-way ANOVA with repeated measures to compare the treatment arms; statistical significance (p<0.05) was detected by Dunnett’s post-hoc test to compare treatment with vehicle controls.

compound | concentration at 24 h, nM
CCCCCCCCc1ccc(CCC(N)(CO)CO)cc1 [FTY720] | 8

###

Experiment: Plasma concentrations in repeat-dosing study, satellite rats
Format: in vivo, rat
Conditions: male, Sprague Dawley, rat, plasma, po, 1.5 mg/kg/day, FTY720 1.5 mg/kg/d p.o., Terminal (last day), 0-hr, mean±SEM

compound_structure_string | concentration at 0 h
CCCCCCCCc1ccc(CCC(N)(CO)CO)cc1 | 58 nM

###

Experiment: Plasma concentrations after a single oral dose in rats
Type: in vivo
Conditions: male, Sprague Dawley, plasma; rat, FTY720 10.0 mg/kg single oral dose, 4 hr post-dose, mean±SEM
readout_kind: concentration at 4 hr (µM)

compound_structure_string | reported_measurement
CCCCCCCCc1ccc(CCC(N)(CO)CO)cc1 | 0.146

###

Experiment: Plasma concentrations in repeat-dosing study, satellite rats
Assay type: in vivo, rat
Conditions: male, Sprague Dawley, rat, plasma, po, 3 mg/kg/day, rat, BAF312 3.0 mg/kg/d p.o., Day 1, 4 hr post-dose, mean±SEM

compound_structure_string | quantity_unit | concentration at 4 h
CCc1cc(/C(C)=N/OCc2ccc(C3CCCCC3)c(C(F)(F)F)c2)ccc1CN1CC(C(=O)O)C1 | µM | 0.685

###

Assay: Plasma concentrations after a single oral dose in rats
Format: in vivo
Conditions: male, Sprague Dawley, plasma; rat, FTY720 0.3 mg/kg single oral dose, 48 hr post-dose, mean±SEM

molecule | concentration at 48 h, nM
CCCCCCCCc1ccc(CCC(N)(CO)CO)cc1 [FTY720] | 13

###

Test: Plasma concentrations after a single oral dose in rats
Format: in vivo
Conditions: male, Sprague Dawley, plasma; rat, FTY720 10.0 mg/kg single oral dose, 8 hr post-dose, mean±SEM
readout_kind: concentration at 8 h

molecule | reported_measurement
CCCCCCCCc1ccc(CCC(N)(CO)CO)cc1 [FTY720] | 274 nM

###

Assay: Plasma concentrations in repeat-dosing study, satellite rats
Type: in vivo, rat
Details: male, Sprague Dawley, rat, plasma, po, 0.3 mg/kg/day, BAF312 0.3 mg/kg/d p.o., Terminal (last day), 4 hr post-dose, mean±SEM

compound_structure_string | quantity_unit | concentration at 4 h
CCc1cc(/C(C)=N/OCc2ccc(C3CCCCC3)c(C(F)(F)F)c2)ccc1CN1CC(C(=O)O)C1 | nM | 81

###

Target: human S1P5 (Homo sapiens)
Construct: host or cells: U2OS (Tango EDG8-bla)
Sequence (Q9H228 whole entry): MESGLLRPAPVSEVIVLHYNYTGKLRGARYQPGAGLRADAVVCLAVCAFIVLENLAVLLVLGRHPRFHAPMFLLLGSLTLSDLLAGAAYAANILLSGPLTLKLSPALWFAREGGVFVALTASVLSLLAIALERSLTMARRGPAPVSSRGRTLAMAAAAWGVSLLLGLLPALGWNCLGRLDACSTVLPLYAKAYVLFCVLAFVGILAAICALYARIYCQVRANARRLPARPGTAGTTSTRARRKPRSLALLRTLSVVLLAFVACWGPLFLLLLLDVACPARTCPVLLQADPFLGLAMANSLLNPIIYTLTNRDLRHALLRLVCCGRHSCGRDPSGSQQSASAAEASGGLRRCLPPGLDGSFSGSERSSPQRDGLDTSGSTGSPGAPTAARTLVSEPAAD
Experiment: B arrestin recruitment assay, Tango EDG8-bla U2OS cells
Assay type: cell-based
Details: 18 hours agonist incubation

compound_structure_string | quantity_unit | EC50
CCc1cc(/C(C)=N/OCc2ccc(C3CCCCC3)c(C(F)(F)F)c2)ccc1CN1CC(C(=O)O)C1 | nM | 0.8

###

Biological target: UniProtKB Q99500
Sequence (Q99500 whole entry): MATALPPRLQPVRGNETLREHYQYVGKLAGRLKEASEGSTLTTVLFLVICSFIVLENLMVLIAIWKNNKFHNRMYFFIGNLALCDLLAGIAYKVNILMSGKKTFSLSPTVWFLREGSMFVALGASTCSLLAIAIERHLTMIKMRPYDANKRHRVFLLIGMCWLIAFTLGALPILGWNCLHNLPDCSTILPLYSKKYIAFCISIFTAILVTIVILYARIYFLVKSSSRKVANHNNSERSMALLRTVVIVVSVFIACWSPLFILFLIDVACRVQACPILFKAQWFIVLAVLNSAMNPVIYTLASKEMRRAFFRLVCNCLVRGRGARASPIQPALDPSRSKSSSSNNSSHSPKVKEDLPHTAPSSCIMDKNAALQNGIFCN
Experiment: B arrestin recruitment assay, Tango EDG3-bla U2OS cells
Conditions: 18 hours agonist incubation
Experimental: Tango™ EDG1-bla U2OS cells (Human S1P1), Tango™ EDG3-bla U2OS cells (human S1P3), Tango™ EDG6-bla U2OS cells (human S1P4) and Tango™ EDG8-bla U2OS cells (human S1P5) cell lines were cultured and assayed according to manufacturers instructions with one modification; agonists incubated on the cells for 18 hours prior to addition of the GenBlazer substrate. Final DMSO concentration in the assay is 1%.
pEC50: −log10 of the molar value.

compound | study_target | pEC50
CCc1cc(/C(C)=N/OCc2ccc(C3CCCCC3)c(C(F)(F)F)c2)ccc1CN1CC(C(=O)O)C1 [BAF312] | UniProtKB Q99500 | < 5.00
